- Test system: L5178Y
- Assay Text: Cytotoxicity against mouse L5178Y cells by MTT assay
- Type: functional, cell-based
# IC50 values compiled below
Output should be the measured figure followed by the unit it is expressed in.

Look over these answered cases.
C=C(CO)[C@H]1Cc2c(ccc3c2O[C@@H]2COc4cc(OC)c(OC)cc4[C@]2(O)C3=O)O1 | 200 nM
COC1=C[C@]2(OC[C@H]3Oc4c(ccc5c4C=CC(C)(C)O5)C(=O)[C@H]32)C(=O)CC1=O | 7600 nM
COc1cc2c(cc1OC)[C@@H]1C(=O)c3c(O)cc4c(c3O[C@@H]1CO2)C=CC(C)(C)O4 | 200 nM

# value lookup — system L5178Y, readout IC50, item `COc1cc(O)c2c(c1)O[C@@H]1COc3cc(OC)c(OC)cc3[C@@H]1C2=O` 200 nM
